Reported IC50 values are given for each entry in this list.
target: Arabidopsis thaliana W574L-mutant ALS (Arabidopsis thaliana, UniProt P17597, E575Q/W574L); construct: vector-encoded N-terminal fusion of pET-32a(+) (Trx/His/S tag by own knowledge); made in house; host or cells: Escherichia coli AD494; assay: biochemical; settings: measured; crude extract of E. coli expressed enzyme; read-out: pI50 W574L (converted)
Sequence (P17597 56-670 W574L/E575Q): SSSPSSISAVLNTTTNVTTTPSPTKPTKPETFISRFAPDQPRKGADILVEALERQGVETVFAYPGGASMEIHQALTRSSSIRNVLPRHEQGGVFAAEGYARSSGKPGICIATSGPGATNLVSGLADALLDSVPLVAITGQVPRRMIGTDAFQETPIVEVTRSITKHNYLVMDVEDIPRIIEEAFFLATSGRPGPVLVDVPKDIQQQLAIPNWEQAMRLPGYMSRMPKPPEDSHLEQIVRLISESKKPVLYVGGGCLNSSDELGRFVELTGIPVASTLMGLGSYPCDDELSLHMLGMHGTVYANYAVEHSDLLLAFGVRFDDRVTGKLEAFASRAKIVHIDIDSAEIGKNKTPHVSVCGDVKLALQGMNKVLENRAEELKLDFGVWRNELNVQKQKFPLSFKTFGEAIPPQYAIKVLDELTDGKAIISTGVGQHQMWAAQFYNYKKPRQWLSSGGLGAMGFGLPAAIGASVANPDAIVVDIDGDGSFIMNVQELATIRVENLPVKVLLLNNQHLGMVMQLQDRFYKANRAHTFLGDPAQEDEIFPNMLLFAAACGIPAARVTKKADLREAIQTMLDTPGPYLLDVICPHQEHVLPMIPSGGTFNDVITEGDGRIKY
Respond numerically; units are µM and should not be typed.

# return IC50 for COc1cc(OC)n2nc(S(=O)(=O)Nc3c(Cl)ccc(C)c3Cl)nc2n1 [Metosulam, metosulam] , test system: Arabidopsis thaliana W574L-mutant ALS (Arabidopsis thaliana, UniProt P17597, E575Q/W574L)
20

Write down measured IC50 (Arabidopsis thaliana W574L-mutant ALS (Arabidopsis thaliana, UniProt P17597, E575Q/W574L)) for this compound. CCS(=O)(=O)c1cccnc1S(=O)(=O)NC(=O)Nc1nc(OC)cc(OC)n1 [Rimsulfuron, rimsulfuron]
10

Value source: patent US20150089682A1
